# System: HUVEC
# assayComment: In vitro cytotoxicity MTT assay
# Type: cell-based, human
# conditionInfo: normal HUVEC cell line, 48 h
experimentalReadout: pIC50
Here pIC50 is given on a logarithmic scale as minus log10 of the concentration in mol/L.

[
  {
    "structureString": "CC(=O)c1c(C)c2cnc(Nc3ccc(N4CCNCC4)cn3)nc2n(C2CCCC2)c1=O.Oc1cccc(O)c1",
    "testedTarget": "HUVEC",
    "pIC50": 5.40
  }
]

Now, please, on to the next compound.
Report pIC50 for CC(=O)c1c(C)c2cnc(Nc3ccc(N4CCNCC4)cn3)nc2n(C2CCCC2)c1=O.Cc1cc(O)cc(O)c1 6.07
